system: SGLT2 mRNA; experiment: SGLT2 mRNA in kidney of Balb/c mice, twenty 1-10-1 MOE gapmers, PPS 534 and PPS 553 (Table 74); type: in vivo, mouse; conditions: i.p. 350 nmol/kg twice per week for two weeks, primer probe set 553, normalized to cyclophilin
Strand notation (5' to 3'): a small letter for the sugar, then the base; units joined by * are phosphorothioate-linked, units joined directly phosphodiester-linked; [ ] holds rarer units or linkages, { } end groups; capitals alone tell only the bases. e = 2'-O-(2-methoxyethyl) (MOE); [5mC] = 5-methylcytosine; d = 2'-deoxy (DNA)
Answer each item with its documented % change in SGLT2 mRNA vs saline.
Numeric only. Scale: % Saline

query: Tell us which % change in SGLT2 mRNA vs saline value is on record for 379699 (eG*dG*d[5mC]*dA*dT*dG*dA*dG*d[5mC]*dT*dT*e[5mC]) [compound 379699]
result: −85.8

query: For 379688 (antisense e[5mC]*d[5mC]*dA*dA*dG*d[5mC]*d[5mC]*dA*d[5mC]*dT*dT*eG) [compound 379688] , write its % change in SGLT2 mRNA vs saline.
result: −70.4

query: For the substance 379701 (e[5mC]*d[5mC]*dA*dT*dG*dG*dT*dG*dA*dA*dG*eA) [compound 379701] , report % change in SGLT2 mRNA vs saline.
result: −11.9

query: Tell me its % change in SGLT2 mRNA vs saline given 379684 (antisense eT*dG*dT*d[5mC]*dA*dG*d[5mC]*dA*dG*dG*dA*eT) [compound 379684] as the entry.
result: −43.2

query: Look up and report measured % change in SGLT2 mRNA vs saline for this entry: 379685 (antisense eT*dG*dA*d[5mC]*d[5mC]*dA*dG*d[5mC]*dA*dG*dG*eA) [compound 379685]
result: −20.5

query: Supply % change in SGLT2 mRNA vs saline value. Item: 379687 (antisense eG*dA*dT*dG*dT*dT*dG*d[5mC]*dT*dG*dG*e[5mC]) [compound 379687]
result: −52.1

query: Give % change in SGLT2 mRNA vs saline for 379702 (eG*d[5mC]*dA*d[5mC]*dA*d[5mC]*dA*dG*d[5mC]*dT*dG*e[5mC]) [compound 379702]
result: −89.5

Attribution: patent US8372967B2
